- Test system: SK-MES-1
- protocolSummary: relative viability (nuclei count vs DMSO), 5 days (fraction); higher = more cells survive
- experimentalContext: first compound 0.1 µM
relative viability listing for selected molecules.
quantityMeasured: relative viability

# molecule, assayValue
data = [
    ("O=c1cc(N2CCOCC2)oc2c(-c3cccc4c3sc3ccccc34)cccc12 + COc1cccc2cc(-c3nc([C@H]4CC[C@H](C(=O)O)CC4)n4ncnc(N)c34)[nH]c12 [OSI-027] (partner 0.5 µM)", 0.531),
    ("O=c1cc(N2CCOCC2)oc2c(-c3cccc4c3sc3ccccc34)cccc12 + CC(=O)c1c(C)c2cnc(Nc3ccc(N4CCNCC4)cn3)nc2n(C2CCCC2)c1=O [Palbociclib] (partner 0.5 µM)", 0.359),
]

====

- Test system: NCI-H2170
- protocolSummary: relative viability (nuclei count vs DMSO), 5 days (fraction); higher = more cells survive
- experimentalContext: first compound 0.8 µM

# compound, relative viability
rows = [
    ("COc1nc(C)cnc1NS(=O)(=O)c1cccnc1-c1ccc(-c2nnco2)cc1 [Zibotentan] + CCNC(=O)c1noc(-c2cc(C(C)C)c(O)cc2O)c1-c1ccc(CN2CCOCC2)cc1 [Luminespib] (partner 0.01 µM)", 0.646),
    ("COc1nc(C)cnc1NS(=O)(=O)c1cccnc1-c1ccc(-c2nnco2)cc1 [Zibotentan] + Cc1nc(Nc2ncc(C(=O)Nc3c(C)cccc3Cl)s2)cc(N2CCN(CCO)CC2)n1 [Dasatinib] (partner 0.075 µM)", 0.52),
    ("COc1nc(C)cnc1NS(=O)(=O)c1cccnc1-c1ccc(-c2nnco2)cc1 [Zibotentan] + O=C(CCCCCCC(=O)Nc1ccccc1)NO [Vorinostat] (partner 1 µM)", 0.875),
    ("O=c1cc(-c2cccc3c2Sc2ccccc2S3)oc(N2CCOCC2)c1 + CC1(C)CCC(c2ccc(Cl)cc2)=C(CN2CCN(c3ccc(C(=O)NS(=O)(=O)c4ccc(N[C@H](CCN5CCOCC5)CSc5ccccc5)c(S(=O)(=O)C(F)(F)F)c4)cc3)CC2)C1 [Navitoclax] (partner 0.5 µM)", 0.642),
]

====

- Test system: NCI-H23
- protocolSummary: relative viability (nuclei count vs DMSO), 5 days (fraction); higher = more cells survive
- experimentalContext: first compound 0.8 µM
Each entry below carries its recorded relative viability.
quantityMeasured: relative viability

# compound, assayValue
rows = [
    ("O=c1cc(-c2cccc3c2Sc2ccccc2S3)oc(N2CCOCC2)c1 + O=C(c1cc(Cc2n[nH]c(=O)c3ccccc23)ccc1F)N1CCN(C(=O)C2CC2)CC1 [Olaparib] (partner 8 µM)", 0.24),
    ("COc1nc(C)cnc1NS(=O)(=O)c1cccnc1-c1ccc(-c2nnco2)cc1 [Zibotentan] + CC(=O)Nc1cccc(-n2c(=O)n(C3CC3)c(=O)c3c(Nc4ccc(I)cc4F)n(C)c(=O)c(C)c32)c1 [Trametinib] (partner 0.02 µM)", 0.349),
    ("O=c1cc(-c2cccc3c2Sc2ccccc2S3)oc(N2CCOCC2)c1 + Nc1nc2[nH]cc(CCc3ccc(C(=O)N[C@@H](CCC(=O)O)C(=O)O)cc3)c2c(=O)[nH]1 [Pemetrexed] (partner 0.2 µM)", 0.72),
    ("COc1nc(C)cnc1NS(=O)(=O)c1cccnc1-c1ccc(-c2nnco2)cc1 [Zibotentan] + C[C@@H](Oc1cc(-c2cnn(C3CCNCC3)c2)cnc1N)c1c(Cl)ccc(F)c1Cl [Crizotinib] (partner 1 µM)", 0.565),
    ("COc1nc(C)cnc1NS(=O)(=O)c1cccnc1-c1ccc(-c2nnco2)cc1 [Zibotentan] + Cc1nc(Nc2ncc(C(=O)Nc3c(C)cccc3Cl)s2)cc(N2CCN(CCO)CC2)n1 [Dasatinib] (partner 0.075 µM)", 0.553),
    ("O=c1cc(-c2cccc3c2Sc2ccccc2S3)oc(N2CCOCC2)c1 + CC(=O)Nc1cccc(-n2c(=O)n(C3CC3)c(=O)c3c(Nc4ccc(I)cc4F)n(C)c(=O)c(C)c32)c1 [Trametinib] (partner 0.02 µM)", 0.349),
    ("COc1nc(C)cnc1NS(=O)(=O)c1cccnc1-c1ccc(-c2nnco2)cc1 [Zibotentan] + CS(=O)(=O)CCNCc1ccc(-c2ccc3ncnc(Nc4ccc(OCc5cccc(F)c5)c(Cl)c4)c3c2)o1 [Lapatinib] (partner 2 µM)", 1.19),
]

====

- System: NCI-H2405
- protocolSummary: relative viability (nuclei count vs DMSO), 5 days (fraction); higher = more cells survive
- experimentalContext: first compound 0.03162 µM

# compound, relative viability
records = [
    ("O=c1cc(N2CCOCC2)oc2c(-c3cccc4c3sc3ccccc34)cccc12 + CC1(C)CCC(c2ccc(Cl)cc2)=C(CN2CCN(c3ccc(C(=O)NS(=O)(=O)c4ccc(N[C@H](CCN5CCOCC5)CSc5ccccc5)c(S(=O)(=O)C(F)(F)F)c4)cc3)CC2)C1 [Navitoclax] (partner 0.5 µM)", 1.01),
    ("CCN(CC)CCCCNc1ncc2cc(-c3cc(OC)cc(OC)c3)c(NC(=O)NC(C)(C)C)nc2n1 + CS(=O)(=O)CCNCc1ccc(-c2ccc3ncnc(Nc4ccc(OCc5cccc(F)c5)c(Cl)c4)c3c2)o1 [Lapatinib] (partner 2 µM)", 1.05),
    ("O=c1cc(N2CCOCC2)oc2c(-c3cccc4c3sc3ccccc34)cccc12 + C[C@]1(O)C[C@@H](c2nc(-c3ccc4ccc(-c5ccccc5)nc4c3)c3c(N)nccn32)C1 [Linsitinib] (partner 1 µM)", 1.01),
    ("O=c1cc(N2CCOCC2)oc2c(-c3cccc4c3sc3ccccc34)cccc12 + Cc1nc(NC(=O)N2CCC[C@H]2C(N)=O)sc1-c1ccnc(C(C)(C)C(F)(F)F)c1 [Alpelisib] (partner 2 µM)", 0.885),
    ("O=c1cc(N2CCOCC2)oc2c(-c3cccc4c3sc3ccccc34)cccc12 + CC(C)C[C@H](NC(=O)[C@H](Cc1ccccc1)NC(=O)c1cnccn1)B(O)O [Bortezomib] (partner 0.002 µM)", 0.941),
    ("O=c1cc(N2CCOCC2)oc2c(-c3cccc4c3sc3ccccc34)cccc12 + CS(=O)(=O)CCNCc1ccc(-c2ccc3ncnc(Nc4ccc(OCc5cccc(F)c5)c(Cl)c4)c3c2)o1 [Lapatinib] (partner 2 µM)", 1.18),
    ("CCN(CC)CCCCNc1ncc2cc(-c3cc(OC)cc(OC)c3)c(NC(=O)NC(C)(C)C)nc2n1 + Cc1nc(NC(=O)N2CCC[C@H]2C(N)=O)sc1-c1ccnc(C(C)(C)C(F)(F)F)c1 [Alpelisib] (partner 2 µM)", 0.709),
    ("O=c1cc(N2CCOCC2)oc2c(-c3cccc4c3sc3ccccc34)cccc12 + NC(=O)Nc1cc(-c2cccc(F)c2)sc1C(=O)N[C@H]1CCCNC1 [AZD7762] (partner 0.2 µM)", 0.727),
]

====

- Tested on: NCI-H661
- protocolSummary: relative viability (nuclei count vs DMSO), 5 days (fraction); higher = more cells survive
- experimentalContext: first compound 0.03162 µM
Attribute: relative viability

# compound, relative viability
data = [
    ("CCN(CC)CCCCNc1ncc2cc(-c3cc(OC)cc(OC)c3)c(NC(=O)NC(C)(C)C)nc2n1 + CC(=O)Nc1cccc(-n2c(=O)n(C3CC3)c(=O)c3c(Nc4ccc(I)cc4F)n(C)c(=O)c(C)c32)c1 [Trametinib] (partner 0.02 µM)", 0.589),
    ("CCN(CC)CCCCNc1ncc2cc(-c3cc(OC)cc(OC)c3)c(NC(=O)NC(C)(C)C)nc2n1 + Cc1nc(Nc2ncc(C(=O)Nc3c(C)cccc3Cl)s2)cc(N2CCN(CCO)CC2)n1 [Dasatinib] (partner 0.075 µM)", 0.841),
    ("O=c1cc(N2CCOCC2)oc2c(-c3cccc4c3sc3ccccc34)cccc12 + N=C(N)NC(=N)NCCc1ccccc1 [Phenformin] (partner 250 µM)", 0.278),
]

====

- Test system: NCI-H727
- protocolSummary: relative viability (nuclei count vs DMSO), 5 days (fraction); higher = more cells survive
- experimentalContext: first compound 2 µM
relative viability listing for selected compounds.

# compound, relative viability
records = [
    ("COCC1(CO)C(=O)C2CCN1CC2 (stereo unspecified) [PRIMA-1MET] + C[C@]1(O)C[C@@H](c2nc(-c3ccc4ccc(-c5ccccc5)nc4c3)c3c(N)nccn32)C1 [Linsitinib] (partner 1 µM)", 0.301),
    ("COCC1(CO)C(=O)C2CCN1CC2 (stereo unspecified) [PRIMA-1MET] + N=C(N)NC(=N)NCCc1ccccc1 [Phenformin] (partner 250 µM)", 0.387),
    ("COCC1(CO)C(=O)C2CCN1CC2 (stereo unspecified) [PRIMA-1MET] + CS(=O)(=O)N1CCN(Cc2cc3nc(-c4cccc5[nH]ncc45)nc(N4CCOCC4)c3s2)CC1 [Pictilisib] (partner 1 µM)", 0.241),
    ("COCC1(CO)C(=O)C2CCN1CC2 (stereo unspecified) [PRIMA-1MET] + COc1cccc2cc(-c3nc([C@H]4CC[C@H](C(=O)O)CC4)n4ncnc(N)c34)[nH]c12 [OSI-027] (partner 0.5 µM)", 0.498),
    ("COCC1(CO)C(=O)C2CCN1CC2 (stereo unspecified) [PRIMA-1MET] + COc1cc2c(Oc3ccc(NC(=O)C4(C(=O)Nc5ccc(F)cc5)CC4)cc3F)ccnc2cc1OCCCN1CCOCC1 [Foretinib] (partner 0.25 µM)", 0.782),
    ("COCC1(CO)C(=O)C2CCN1CC2 (stereo unspecified) [PRIMA-1MET] + Cc1nc(Nc2ncc(C(=O)Nc3c(C)cccc3Cl)s2)cc(N2CCN(CCO)CC2)n1 [Dasatinib] (partner 0.075 µM)", 0.351),
]
